Entries and their inhibition at 0.01 mg/kg values follow.
Biological target: 5-HT₃ receptor (Rattus norvegicus, UniProt P35563)
Construct: from tissue
Sequence (P35563 24-483): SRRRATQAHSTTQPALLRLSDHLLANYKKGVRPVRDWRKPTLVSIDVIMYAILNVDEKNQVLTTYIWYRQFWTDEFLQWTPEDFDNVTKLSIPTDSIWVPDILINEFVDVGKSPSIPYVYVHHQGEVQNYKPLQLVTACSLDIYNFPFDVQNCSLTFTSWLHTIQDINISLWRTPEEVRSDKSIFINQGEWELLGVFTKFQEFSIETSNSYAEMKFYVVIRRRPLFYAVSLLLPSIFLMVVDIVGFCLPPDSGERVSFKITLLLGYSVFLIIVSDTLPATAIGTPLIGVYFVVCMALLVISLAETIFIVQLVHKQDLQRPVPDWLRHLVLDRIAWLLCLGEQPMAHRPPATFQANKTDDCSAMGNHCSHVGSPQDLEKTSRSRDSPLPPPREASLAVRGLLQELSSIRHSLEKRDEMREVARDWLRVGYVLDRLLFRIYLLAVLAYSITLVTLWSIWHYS
Assay: Inhibition of serotonin-induced Von Bezold-Jarisch reflex in rats
Format: in vivo
Conditions: rat, iv; 0.01 mg/kg I.V., 15 minutes prior to 5-HT; read-out: Percent Inhibition of Reflex in Rats
reported_property: inhibition at 0.01 mg/kg (%)

CC1Cc2cc(F)cc(C(=O)O[C@H]3C[C@H]4CC[C@@H](C3)N4C)c2O1 (mixture of isomers) ... 32
CN1[C@@H]2CC[C@H]1C[C@H](NC(=O)c1cccc3c1OC(C)(C)C3)C2 ... 53
CN1[C@@H]2CC[C@H]1C[C@@H](NC(=O)c1cccc3c1OC(C)(C)CC3)C2 ... 76
CC1Cc2cc(Cl)cc(C(=O)N[C@H]3C[C@H]4CC[C@@H](C3)N4C)c2O1 (mixture of isomers) ... 80
CN1[C@@H]2CCC[C@H]1C[C@@H](NC(=O)c1cc(Cl)cc3c1OC(C)(C)C3)C2 ... 94
CN1[C@@H]2CC[C@H]1C[C@@H](OC(=O)c1cc(Cl)c3c(c1)CC(C)(C)O3)C2 ... -4
CN1[C@@H]2CC[C@H]1C[C@@H](NC(=O)c1ccc3c(c1)CC(C)(C)O3)C2 ... 16
CN1[C@@H]2CC[C@H]1C[C@@H](NC(=O)c1ccc(Cl)c3c1OC(C)(C)C3)C2 ... 1.2
CN1[C@@H]2CC[C@H]1C[C@@H](NC(=O)c1cccc3c1CC(C)(C)O3)C2 ... -4
CN1[C@@H]2CC[C@H]1C[C@@H](OC(=O)c1cccc3c1OC(C)(C)C3)C2 ... 38
CC1Cc2cccc(C(=O)O[C@H]3C[C@H]4CC[C@@H](C3)N4C)c2O1 (mixture of isomers) ... 31
COc1cc2c(c(C(=O)O[C@H]3C[C@H]4CC[C@@H](C3)N4C)c1)OC(C)C2 (mixture of isomers) ... 4
CN1[C@@H]2CC[C@H]1C[C@@H](NC(=O)c1cc(Cl)c(N)c3c1OC(C)(C)C3)C2 ... 89
COc1c(Cl)cc(C(=O)N[C@H]2C[C@H]3CC[C@@H](C2)N3C)c2c1CC(C)(C)O2 ... 3
CN1[C@@H]2CC[C@H]1C[C@@H](NC(=O)c1cccc3c1OC(C)(C)C3)C2 ... 53
Cc1cc2c(c(C(=O)N[C@H]3C[C@H]4CC[C@@H](C3)N4C)c1)OC(C)(C)C2 ... 87
